Source: patent US5384314A

System: human sebocytes (sebaceous cells)
experiment: inhibition of human sebocyte proliferation in vitro
Format: cell-based
assayConditions: human sebocytes in vitro; control treated with diluent only; read-out: ED50 (amount of compound necessary to inhibit the proliferation of the sebaceous cells by 50% as compared to a control)
observationType: IC50 (nM)
Kindly answer with a numeric value in nM, unit omitted.

// IC50 value for "C=C1/C(=C\C=C2/CCC[C@]3(C)C([C@H](C)CC#CC(C)(C)O)=CC[C@@H]23)C[C@@H](O)C[C@@H]1F" : 1
